- Test system: MRSA
- Type: cell-based, Methicillin-resistant Staphylococcus aureus
- Assay Context: 18 h
Square brackets hold non-standard residues; d marks the D form. Side chains are listed from the residue outwards. Peptide text beside a SMILES is read from it. βAla = NCCC(=O)O
Experimental Endpoint: IC50 MRSA (µg/mL)
Reply with just the number (in µg/mL).

Form: compound = N=C(N)NCCC[C@H](NC(=O)[C@H](Cc1c[nH]c2ccccc12)NC(=O)[C@@H](N)CCCNC(=N)N)C(=O)NCCCC[C@H](NC(=O)[C@H](CCCCNC(=O)[C@H](CCCNC(=N)N)NC(=O)[C@H](Cc1c[nH]c2ccccc12)NC(=O)[C@@H](N)CCCNC(=N)N)NC(=O)[C@H](CCCNC(=N)N)NC(=O)[C@H](Cc1c[nH]c2ccccc12)NC(=O)[C@@H](N)CCCNC(=N)N)C(=O)NCCC(N)=O [Dendrimer 3D-06, reference compound] (H-RWRK([Arg-Trp-Arg])K([Arg-Trp-Arg])[βAla]-NH2) ; IC50 MRSA = 17.3
